Origin of the recorded values: ChEMBL document CHEMBL3046423

System: Aspergillus flavus
measurement_notes: Antifungal activity against Aspergillus flavus MRC 2527 after 24 hr by broth microdilution method
Format: functional
particulars: MRC 2527, 24 h
endpoint_label: MIC (µg/mL)
Please state the figure in µg/mL; there is no need to write the unit.

Study these solved cases before continuing.
CC(C)CCCC(C)CCNCCNC12CC3CC(CC(C3)C1)C2.Cl (stereo unspecified) ... 25
CC(C)=CCC/C(C)=C/CC/C(C)=C/CNCCNC1C2CC3CC(C2)CC1C3.Cl (stereo unspecified) ... 25

Pending compound:
For Aspergillus flavus, provide MIC of CC(C)CCCC(C)CCNCCNC1C2CC3CC(C2)CC1C3.Cl (stereo unspecified) please.
25
